Source of measurements: patent US20060194837A1

# Target Desc: human H3 receptor (Homo sapiens, UniProt Q9Y5N1)
# Construct: expressed in transfected cells
# Sequence (Q9Y5N1 whole entry): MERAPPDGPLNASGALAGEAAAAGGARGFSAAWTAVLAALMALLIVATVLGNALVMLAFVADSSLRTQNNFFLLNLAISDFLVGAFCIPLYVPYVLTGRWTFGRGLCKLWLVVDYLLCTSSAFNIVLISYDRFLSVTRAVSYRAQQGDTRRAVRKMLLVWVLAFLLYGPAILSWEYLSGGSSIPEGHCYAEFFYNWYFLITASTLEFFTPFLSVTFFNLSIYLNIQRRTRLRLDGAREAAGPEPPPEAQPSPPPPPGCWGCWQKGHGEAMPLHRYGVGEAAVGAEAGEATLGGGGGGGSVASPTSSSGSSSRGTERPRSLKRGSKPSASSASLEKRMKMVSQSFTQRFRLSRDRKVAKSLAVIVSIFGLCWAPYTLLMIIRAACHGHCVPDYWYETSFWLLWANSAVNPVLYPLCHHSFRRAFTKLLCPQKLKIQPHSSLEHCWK
# Protocol Text: Cyclic AMP accumulation (β-galactosidase reporter, Schild analysis)
# Type: cell-based
# Assay Setup: pA2, SK-N-MC cells expressing human H3 receptor and CRE-β-galactosidase reporter; histamine agonist, forskolin 5 μM; Schild regression of pEC50 values
# log10 Kb listing for each entry below
Readout Type: log10 Kb (log10 of the value in nM)

* CCN(CC)CCCOc1ccc2c(c1)CN(C)CC2c1ccc(OC)cc1 (stereo not drawn) | -0.40
* CN1Cc2cc(OCCCN3CCOCC3)ccc2C(c2ccc(Cl)c(Cl)c2)C1 (stereo not drawn) | 1.30
* CN1Cc2cc(OCCCN3CCCCC3)ccc2C(c2ccc(Cl)c(Cl)c2)C1 (stereo not drawn) | 0.60
* CN1Cc2cc(OCCCN3CCC(F)CC3)ccc2C(c2cc(Cl)ccc2Cl)C1 (stereo not drawn) | 0.70
* COc1ccc(C2CN(CCF)Cc3cc(OCCCN4CCCCC4)ccc32)cc1 (stereo not drawn) | -0.10
* CN1Cc2cc(OCCCN3CCC(F)CC3)ccc2C(c2ccc(OC(F)F)cc2)C1 (stereo not drawn) | 0.60
